Data origin: patent US20240084003A1

Catalogue of binders with associated OD450
system tested: T1, murine CD22 protein (ACROBiosystems, SI2-M52Ha) (murine, UniProt P35329 22-708)
T1 construct: extracellular domain; also called murine CD22-ECD; murine CD22-ECD-His
T1 sequence (looked up): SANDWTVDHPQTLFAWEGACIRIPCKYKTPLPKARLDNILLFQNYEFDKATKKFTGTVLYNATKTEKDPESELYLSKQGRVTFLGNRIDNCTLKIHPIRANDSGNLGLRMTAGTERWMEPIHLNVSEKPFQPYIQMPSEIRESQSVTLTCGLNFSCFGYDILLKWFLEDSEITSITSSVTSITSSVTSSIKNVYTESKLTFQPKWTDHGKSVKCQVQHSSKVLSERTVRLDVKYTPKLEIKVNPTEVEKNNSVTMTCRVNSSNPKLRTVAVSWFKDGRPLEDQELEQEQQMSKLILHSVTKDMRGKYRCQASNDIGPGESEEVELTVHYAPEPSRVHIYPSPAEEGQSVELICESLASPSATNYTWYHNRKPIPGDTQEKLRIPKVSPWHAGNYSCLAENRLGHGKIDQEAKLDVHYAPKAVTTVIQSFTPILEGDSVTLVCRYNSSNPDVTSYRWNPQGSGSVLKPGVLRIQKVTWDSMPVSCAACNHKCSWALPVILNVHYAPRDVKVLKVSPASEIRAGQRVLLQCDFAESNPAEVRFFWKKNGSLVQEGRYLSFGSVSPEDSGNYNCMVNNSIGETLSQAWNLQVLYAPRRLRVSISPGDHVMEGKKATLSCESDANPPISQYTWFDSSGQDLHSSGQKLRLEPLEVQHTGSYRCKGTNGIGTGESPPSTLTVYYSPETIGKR
method summary: ELISA, coated murine CD22, 10 nM Ab
Numbers only here, please. The scale is OD450.

In the examples that follow, each entry is paired with its recorded OD450.
Would you mind telling me what OD450 value was observed for F1.7.6 human-murine chimeric antibody (antibody, human IgG1, kappa, V domains shown, Chimeric, human IgG1 / kappa; VL tied by name) VH: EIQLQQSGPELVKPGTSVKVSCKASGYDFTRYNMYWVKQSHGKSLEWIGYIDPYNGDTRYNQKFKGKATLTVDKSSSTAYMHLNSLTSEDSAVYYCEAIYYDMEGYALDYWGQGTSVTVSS VL: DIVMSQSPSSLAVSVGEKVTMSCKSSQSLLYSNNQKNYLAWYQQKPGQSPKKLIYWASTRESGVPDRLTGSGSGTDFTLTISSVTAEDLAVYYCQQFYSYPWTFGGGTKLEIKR ?
0.06

// OD450 lookup, key: F2.104.10 human-murine chimeric antibody (antibody, human IgG1, lambda, V domains shown, Chimeric, human IgG1 / lambda) VH: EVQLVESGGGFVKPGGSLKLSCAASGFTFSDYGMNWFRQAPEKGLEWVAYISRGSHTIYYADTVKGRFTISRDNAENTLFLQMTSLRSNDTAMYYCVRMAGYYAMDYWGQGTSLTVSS VL: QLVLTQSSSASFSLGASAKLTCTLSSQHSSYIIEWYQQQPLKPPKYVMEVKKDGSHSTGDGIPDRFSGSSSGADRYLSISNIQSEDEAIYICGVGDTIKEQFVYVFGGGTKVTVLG
0.07

Record request: OD450 value, item F1.216.2 human-murine chimeric antibody (antibody, human IgG1, kappa, V domains shown, Chimeric, human IgG1 / kappa) VH: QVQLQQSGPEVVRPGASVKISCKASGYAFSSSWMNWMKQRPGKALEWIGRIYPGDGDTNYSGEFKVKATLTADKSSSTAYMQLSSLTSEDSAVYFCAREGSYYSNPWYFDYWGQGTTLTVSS VL: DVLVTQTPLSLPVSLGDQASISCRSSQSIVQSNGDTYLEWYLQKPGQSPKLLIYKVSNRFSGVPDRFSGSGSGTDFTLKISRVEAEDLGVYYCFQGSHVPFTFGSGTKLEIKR
0.06

Entry F1.224.1 human-murine chimeric antibody (antibody, human IgG1, kappa, V domains shown, Chimeric, human IgG1 / kappa; VL tied by name) VH: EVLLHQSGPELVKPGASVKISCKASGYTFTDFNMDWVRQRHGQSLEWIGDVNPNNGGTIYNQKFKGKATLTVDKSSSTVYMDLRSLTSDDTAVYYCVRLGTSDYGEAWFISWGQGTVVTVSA VL: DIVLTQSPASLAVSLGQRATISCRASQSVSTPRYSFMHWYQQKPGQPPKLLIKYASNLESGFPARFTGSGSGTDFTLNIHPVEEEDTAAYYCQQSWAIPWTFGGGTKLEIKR : reported OD450 = ?
0.1

Next item in the queue.
Entry F2.173.9 human-murine chimeric antibody (antibody, human IgG1, lambda, V domains shown, Chimeric, human IgG1 / lambda) VH: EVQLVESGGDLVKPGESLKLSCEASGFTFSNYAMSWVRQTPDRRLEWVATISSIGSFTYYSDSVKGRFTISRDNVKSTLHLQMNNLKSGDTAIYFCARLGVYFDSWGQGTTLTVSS VL: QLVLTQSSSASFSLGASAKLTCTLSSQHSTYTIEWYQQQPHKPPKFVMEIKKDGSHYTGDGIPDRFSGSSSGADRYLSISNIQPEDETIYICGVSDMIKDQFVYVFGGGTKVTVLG has what OD450?
0.06
